This collection of values is drawn from ChEMBL document CHEMBL4028848.

# EXPERIMENT DESCRIPTION: AUC (0 to t) in female Sprague-Dawley rat at 30 mg/kg, po by LC-MS/MS analysis
# Format: ADME, organism-based
# CONDITIONS: in vivo
ASSAY METRIC: AUC(0-t)

response.value for CC(=O)Nc1cc(-c2c(-c3ccc(F)cc3)nc([S+](C)[O-])n2C)ccn1 (stereo unspecified) (field: AUC(0-t)) = 40.9 µM·h

###

# EXPERIMENT DESCRIPTION: Half life in female Sprague-Dawley rat at 30 mg/kg, po by LC-MS/MS analysis
# Assay type: ADME, organism-based
# CONDITIONS: in vivo
ASSAY METRIC: half-life (h)
Give bare numbers, in h.

response.value for CC(=O)Nc1cc(-c2c(-c3ccc(F)cc3)nc([S+](C)[O-])n2C)ccn1 (stereo unspecified) (field: half-life) = 2.2

###

# EXPERIMENT DESCRIPTION: Half life in human at 50 mg, po administered as single dose
# Type: ADME, organism-based
# CONDITIONS: in vivo
ASSAY METRIC: half-life (h)
Numbers only, in h.

Cn1c([S+](C)[O-])nc(-c2ccc(F)cc2)c1-c1ccnc(N)c1 (configuration not stated)	9

response.value for CC(=O)Nc1cc(-c2c(-c3ccc(F)cc3)nc([S+](C)[O-])n2C)ccn1 (configuration not stated) (field: half-life) = 3.2

###

# EXPERIMENT DESCRIPTION: Tmax in cynomolgus monkey at 20 mg/kg, po measured on day 1 and 27 post dose by LC-MS/MS analysis
# Assay type: ADME, organism-based, Macaca fascicularis
# CONDITIONS: in vivo
ASSAY METRIC: Tmax (h)
Give bare numbers, in h.

response.value for CC(=O)Nc1cc(-c2c(-c3ccc(F)cc3)nc([S+](C)[O-])n2C)ccn1 (stereo unspecified) (field: Tmax) = 4

###

# EXPERIMENT DESCRIPTION: Cmax in fed human at 10 mg, po administered as single dose
# Type: ADME, organism-based
# Parameters: dose 10 mg, route oral
# CONDITIONS: in vivo
Assign Cmax to each entry below.

CC(=O)Nc1cc(-c2c(-c3ccc(F)cc3)nc([S+](C)[O-])n2C)ccn1 (configuration not stated)	140 nM

Moving on to another compound below.
response.value for Cn1c([S+](C)[O-])nc(-c2ccc(F)cc2)c1-c1ccnc(N)c1 (configuration not stated) (field: Cmax) = 140 nM

###

# EXPERIMENT DESCRIPTION: Fraction unbound in human plasma
# Assay type: ADME, cell-free
Assign fraction unbound to each entry below.
Give bare numbers.

O=C(Nc1c(Cl)cncc1Cl)c1ccc(OC(F)F)c(OCC2CC2)c1	0.02
O=C(Nc1c(Cl)c[n+]([O-])cc1Cl)c1ccc(OC(F)F)c(OCC2CC2)c1	0.04
Cn1c([S+](C)[O-])nc(-c2ccc(F)cc2)c1-c1ccnc(N)c1 (centres undefined)	0.5

Moving on to another compound below.
response.value for CC(=O)Nc1cc(-c2c(-c3ccc(F)cc3)nc([S+](C)[O-])n2C)ccn1 (centres undefined) (field: fraction unbound) = 0.5

###

Assign AUC(0-inf) to each entry below.
# EXPERIMENT DESCRIPTION: AUC (0 to infinity) in fed human at 10 mg, po administered as single dose
# Type: ADME, organism-based
# Design: dose 10 mg, route oral, time infinity
# CONDITIONS: in vivo
Numbers only, in µM·h.

CC(=O)Nc1cc(-c2c(-c3ccc(F)cc3)nc([S+](C)[O-])n2C)ccn1 (configuration not stated)	0.88

Moving on to another compound below.
response.value for Cn1c([S+](C)[O-])nc(-c2ccc(F)cc2)c1-c1ccnc(N)c1 (configuration not stated) (field: AUC(0-inf)) = 3.07
